Target: hGIPR (Homo sapiens, UniProt P48546)
Sequence (P48546 22-466): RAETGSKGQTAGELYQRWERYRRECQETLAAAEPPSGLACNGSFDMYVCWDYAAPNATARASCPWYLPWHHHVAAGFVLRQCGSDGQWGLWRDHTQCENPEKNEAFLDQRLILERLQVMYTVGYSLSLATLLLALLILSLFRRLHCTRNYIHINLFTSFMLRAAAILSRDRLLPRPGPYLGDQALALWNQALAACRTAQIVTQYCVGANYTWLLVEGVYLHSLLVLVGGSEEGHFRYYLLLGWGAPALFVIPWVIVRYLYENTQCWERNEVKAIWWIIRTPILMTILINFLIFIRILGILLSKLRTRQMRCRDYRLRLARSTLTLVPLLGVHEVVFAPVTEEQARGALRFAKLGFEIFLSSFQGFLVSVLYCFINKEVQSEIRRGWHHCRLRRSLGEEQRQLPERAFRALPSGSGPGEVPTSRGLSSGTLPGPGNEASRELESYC
Test: Functional cAMP activation in the presence of 0.1% casein (no HSA);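 further: intracellular cAMP rise after 30 min at 37 °C read by HTRF against a standard curve, scaled between buffer alone (0%) and top control ligand concentration (100%), four-parameter fit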
Format: cell-based
Conditions: read-out: Relative cAMP EC50, hGIPR
Starred links: 1 amine or outer side, 2 acyl side, 3 side chain; linkers in the order of their positions; H or OH if unused. Non-standard residues stand in square brackets, D forms with d. Groups on a side chain read outwards from the residue. *: point of attachment. C18 diacid = O=C(O)CCCCCCCCCCCCCCCCC(=O)*; αMePhe(2-F) = C[C@](N)(Cc1ccccc1F)C(=O)O; γGlu = O=C(O)[C@H](CCC(=O)[*:2])N[*:1]; αMe4Pal = C[C@](N)(Cc1ccncc1)C(=O)O; αMeY = C[C@](N)(Cc1ccc(O)cc1)C(=O)O; 4Pal = N[C@@H](Cc1ccncc1)C(=O)O; αMeL = CC(C)C[C@](C)(N)C(=O)O; Orn = NCCC[C@H](N)C(=O)O; Aib = CC(C)(N)C(=O)O
readout label: pEC50
Quick note: pEC50 values are minus log10 of concentrations in mol/L.

INPUT: Look up and report measured pEC50 for this entry: H-Y[Aib]QGT[αMePhe(2-F)]TSD[4Pal]SI[αMeL]LD[Orn]K([γGlu-γGlu-C18 diacid])AQ[αMe4Pal]EFI[dE][αMeY]LLEGGPSSGAPPPSGE-NH2 [Example 617]
OUTPUT: 11.07
